target: Mycobacterium tuberculosis lysyl t-RNA synthetase (Mtb KRS) (Mycobacterium tuberculosis, UniProt P9WFU9); construct: MtbKRS1-; made in house; host or cells: E. coli BL21 (DE3); assay: Mtb KRS inhibition biochemical assay (BioMol Green); details: read-out: Mtb KRS pIC50 (converted)
Sequence (P9WFU9 whole entry): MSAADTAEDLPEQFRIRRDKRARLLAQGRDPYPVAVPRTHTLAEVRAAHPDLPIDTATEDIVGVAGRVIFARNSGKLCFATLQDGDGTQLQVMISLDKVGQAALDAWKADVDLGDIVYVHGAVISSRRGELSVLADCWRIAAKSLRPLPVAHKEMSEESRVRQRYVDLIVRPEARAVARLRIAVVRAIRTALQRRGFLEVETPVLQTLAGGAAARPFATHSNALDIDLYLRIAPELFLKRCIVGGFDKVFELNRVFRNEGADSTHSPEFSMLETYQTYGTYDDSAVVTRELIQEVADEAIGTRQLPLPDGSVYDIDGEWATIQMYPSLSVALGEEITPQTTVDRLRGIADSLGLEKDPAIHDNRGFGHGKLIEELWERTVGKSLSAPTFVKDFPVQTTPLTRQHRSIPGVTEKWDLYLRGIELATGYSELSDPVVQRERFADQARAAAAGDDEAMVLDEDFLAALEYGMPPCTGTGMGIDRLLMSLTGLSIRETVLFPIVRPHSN
MEASURED_QUANTITY: IC50 (µM)
The figure you give is taken to be in µM; do not add the unit.

Observe how each entry below is paired with its result.
COMPOUND	IC50 / µM
CCC(C)CNC(=O)c1cc(=O)c2cc(F)cc(O)c2o1 (stereo not shown) [Example 76H]	50.1
O=C(NC1CCCC(F)(F)C1)c1cc(=O)c2cc(F)cc(O)c2o1 (stereo not shown) [Example 76C]	15.8
O=C(NC1CCCCC1)c1cc(=O)c2cc(F)cc(O)c2o1 [Example 76B]	7.94

With those in mind, consider the next compound.
The reported value for O=C(NCC1CCC1)c1cc(=O)c2cc(F)cc(O)c2o1 [Example 76E] in terms of IC50 is 31.6
